Assay: Phase I clinical trial, human plasma pharmacokinetics of oral Compound 1
Type: in vivo
Details: both sexes, human, plasma, po, 165 mg/m^2, Day 01, Cohort 3, 165 mg/m^2 (300 mg), oral daily; read-out: Vz/F
measure: Vd/F (L)
Your answer should be a plain number; it is taken to be in L.

Lookup: Given C[C@H](O)C(=O)N1CCC(CCn2c(Sc3cc4c(cc3Br)OCO4)nc3c(N)ncnc32)CC1 , state its recorded Vd/F.
Found: 40

====

Assay: Phase I clinical trial, human plasma pharmacokinetics of oral Compound 1
Type: in vivo
Conditions: human, plasma, po, 50 mg/m^2, Day 19, Cohort 1, 50 mg/m^2 (100 mg), oral daily
Description: A human clinical study was initiated at a starting dose of 50 mg/m^2. Subjects had recurrent cancer refractory to available systemic therapy. Compound 1 was administered daily by mouth in tablet form for 21 consecutive days in a 28 day cycle to each enrolled subject. […] Plasma was collected pre-dose only for cycle 1 day 8. […]
measure: AUC(0-inf) (ng·h/mL)
Your answer should be a plain number; it is taken to be in ng·h/mL.

Lookup: Given C[C@H](O)C(=O)N1CCC(CCn2c(Sc3cc4c(cc3Br)OCO4)nc3c(N)ncnc32)CC1 [Compound 1] , state its recorded AUC(0-inf).
Found: 30800
